Hey, just so you know, these numbers are from patent US10435388B2.

# target-or-system: IGF-1R (Homo sapiens, UniProt P08069)
# Construct: purchased CARNA BIOSCIENCE 08-141
# Sequence (P08069 959-1367 limits assumed): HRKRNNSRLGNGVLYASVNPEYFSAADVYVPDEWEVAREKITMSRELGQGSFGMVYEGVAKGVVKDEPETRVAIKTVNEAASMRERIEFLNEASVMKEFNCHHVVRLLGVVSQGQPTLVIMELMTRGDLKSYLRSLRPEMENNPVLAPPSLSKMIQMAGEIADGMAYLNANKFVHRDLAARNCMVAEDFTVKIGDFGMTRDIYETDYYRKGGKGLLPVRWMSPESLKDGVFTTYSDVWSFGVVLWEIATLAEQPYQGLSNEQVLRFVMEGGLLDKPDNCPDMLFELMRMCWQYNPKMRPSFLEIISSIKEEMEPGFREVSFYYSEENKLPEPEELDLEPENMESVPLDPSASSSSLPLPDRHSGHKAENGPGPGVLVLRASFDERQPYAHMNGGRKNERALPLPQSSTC
# assay-explanation: IGF-1R inhibition assay (Caliper EZ Reader)
# Type: biochemical
# assay-conditions: enzyme assay
Structures can show the parent of a compound that is named as a salt.
property: IC50 (nM)

compound: C=CC(=O)Nc1cc(Nc2nccc(-n3nc(NC)c4ncccc43)n2)c(OC)cc1N(C)CCN(C)C [Example 56]
IC50 (nM): 637
//
compound: C=CC(=O)Nc1cc(Nc2nccc(-c3c[nH]c4c(C(N)=O)cccc34)n2)c(OC)cc1N(C)CCN(C)C [Example 16]
IC50 (nM): 3.94
//
compound: C=CC(=O)Nc1cc(Nc2nccc(-c3cnc(OC)c4c3ccn4C)n2)c(OC)cc1N(C)CCN(C)C [Example 57]
IC50 (nM): 207
//
compound: C=CC(=O)Nc1cc(Nc2nccc(-c3cnc(NC)c(C(C)=O)c3)n2)c(OC)cc1N(C)CCN(C)C [Example 27]
IC50 (nM): 4820
//
compound: C=CC(=O)Nc1cc(Nc2nccc(-n3cc(C(=O)O)c4ccccc43)n2)c(OC)cc1N(C)CCN(C)C [Example 30]
IC50 (nM): 210

a: C=CC(=O)Nc1cc(Nc2nccc(-c3cc(C(N)=O)cc4c3ccn4C)n2)c(OC)cc1N(C)CCN(C)C [Example 34, hydrochloride]
b: C=CC(=O)Nc1cc(Nc2nccc(-n3nc(N)c4ccccc43)n2)c(OC)cc1N(C)CCN(C)C [Example 20]
For a and b , which recorded IC50 is lower? Refer to your chosen item by its label in the answer. b

----------
# Tested on: PC9 cells (SM)
# assay-explanation: PC-9 growth inhibition assay (cell proliferation), Method B
# Format: cell-based, human
# assay-conditions: Homo sapiens, PC-9, 72 h, cellular proliferation, several runs
property: IC50 (nM)

compound: C=CC(=O)Nc1cc(Nc2nccc(-n3nc(N(C)C)c4ccccc43)n2)c(OC)nc1N(C)CCN(C)C
IC50 (nM): 5.88
//
compound: C=CC(=O)Nc1cc(Nc2nccc(-c3c[nH]c4c(C(C)(C)C)cccc34)n2)c(OC)cc1N(C)CCN(C)C
IC50 (nM): 4.01
//
compound: C=CC(=O)Nc1cc(Nc2nccc(-c3c[nH]c4c(=O)[nH]ccc34)n2)c(OC)cc1N(C)CCN(C)C
IC50 (nM): 62.6
//
compound: C=CC(=O)Nc1cc(Nc2nccc(-n3nc(N)c4ccccc43)n2)c(OC)cc1N(C)CCN(C)C
IC50 (nM): 1.92
//
compound: C=CC(=O)Nc1cc(Nc2nccc(-n3nc(N4CCCC4)c4ccccc43)n2)c(OC)cc1N(C)CCN(C)C
IC50 (nM): 19.7
//
compound: C=CC(=O)Nc1cc(Nc2nccc(-n3cc(-c4c[nH]nn4)c4ccccc43)n2)c(OC)cc1N(C)CCN(C)C
IC50 (nM): 29.5

P: C=CC(=O)Nc1cc(Nc2nccc(-n3nc(NC)c4ncccc43)n2)c(OC)cc1N(C)CCN(C)C
Q: C=CC(=O)Nc1cc(Nc2nccc(-n3nc(NC(C)=O)c4ccccc43)n2)c(OC)cc1N(C)CCN(C)C
Could you tell me which of P and Q has the lower IC50 reading? Answer format: the label of the selected item. P
(P: 1.66 nM, Q: 3.09 nM)

1: C=CC(=O)Nc1cc(Nc2nccc(-c3c[nH]c4c(OC)nccc34)n2)c(OC)cc1N(C)CCN(C)C
2: C=CC(=O)Nc1cc(Nc2nccc(-n3cc(C(N)=O)c4ncccc43)n2)c(OC)cc1N(C)CCN(C)C
3: C=CC(=O)Nc1cc(Nc2nccc(-n3nc(N(C)C)c4ccccc43)n2)c(OCC(F)F)nc1N(C)CCN(C)C
Let's sort these by IC50, smallest first. Go ahead? Returns: the labels arranged in the requested order. 2, 3, 1
